Tested on: HEK-293T
Experiment: Multiplex assay against HEK293T
Assay type: toxicity, cell-based
Settings: human, 24 h, 1 µM, compound concentration 1 uM, replicate 1
MEASUREMENT_TYPE: Population Mitotic Cells (%)
Express it in %; write the number only.

Test system HEK-293T; read-out Population Mitotic Cells (%); what value for "CN[C@@H]1C[C@H]2O[C@@](C)([C@@H]1OC)n1c3ccccc3c3c4c(c5c6ccccc6n2c5c31)C(=O)NC4" ? 51

Test system HEK-293T; read-out Population Mitotic Cells (%); what value for "O=C(Nc1ccc(Cl)cc1)Nc1cccc(-c2cccc(N3CCCC3)n2)c1" ? 50

Test system HEK-293T; read-out Population Mitotic Cells (%); what value for CN1CCC(=C2c3ccccc3CC(=O)c3sccc32)CC1.O=C(O)/C=C/C(=O)O [KETOTIFEN FUMARATE] ? 49

Where do the numbers come from? From ChEMBL document CHEMBL4689842.
